Measured Property: melting point

compound=Cn1c(=O)c2c(Cl)cccc2n2cnc(C(=O)OCC3CC3)c12 measured_property="melting point" readout_value="214 °C"
compound="CN(C)CCOC(c1ccccc1)c1ccc(C(=O)NCCCCn2cnc3c(N)nc4ccccc4c32)cc1 (stereo not given)" measured_property="melting point" readout_value="110 to 114 °C"
compound=COc1ccc(-c2ccc(C(=O)Nc3cc4ncc(CN5CCCCCC5)cc4cc3C)c(F)c2)cc1 measured_property="melting point" readout_value="168 °C"
compound=O=C(CCCCCl)c1ccc2c(c1)Cc1cc(C(=O)CCCCCl)ccc1-2 measured_property="melting point" readout_value="124 to 125 °C"
compound="O=C(CN1CS(=O)CC1=O)N1CCN(C(c2ccccc2)c2ccccc2)CC1 (stereo not given)" measured_property="melting point" readout_value="225 to 226 °C"
compound=COc1cc(C2CCN(C[C@H](O)CO)CC2)ccc1Nc1ncc2ccc(-c3ccccc3OC)n2n1 measured_property="melting point" readout_value="66 to 80 °C"
compound=O=C(O)c1ccc2c(c1F)OC(c1ccccc1)(c1ccccc1)O2 measured_property="melting point" readout_value="189 to 191 °C"
compound=CC1(C)NC(=O)N(CSc2cc(C(C)(C)C)c(O)c(C(C)(C)C)c2)C1=O measured_property="melting point" readout_value="160 to 162 °C"
compound=NC(=O)C1CCN(CC=Cc2ccccc2)CC1 measured_property="melting point" readout_value="190 to 192 °C"
compound="COc1ccc(CC(C)NCC(O)c2ccccc2OC)cc1OC (stereo not given)" measured_property="melting point" readout_value="125 to 126 °C"
compound=CCOC(=O)c1ccc(Br)cc1-c1ccc(OC)c(OC)c1 measured_property="melting point" readout_value="53 °C"
compound=CC(=O)NCC(=O)N(C)c1ccc(Cl)c(COc2cccn3c(Br)c(C)nc23)c1Cl measured_property="melting point" readout_value="187 to 189 °C"
compound=Cc1cccc(N2CC(c3cccc(-c4ccc(S(C)(=O)=O)cc4)c3)=CN2)n1 measured_property="melting point" readout_value="95 to 97 °C"
compound=Cc1cc(-c2nc3c(C)cc(Cl)nn3c2-c2ccnc(NC(=O)c3ccc(F)cc3)c2)ccc1F measured_property="melting point" readout_value="235 to 236 °C"
compound=CCN(C(=O)C1CCC1)c1cccc(-c2ccc3nnc(C)n3n2)c1 measured_property="melting point" readout_value="157 to 159 °C"
compound="COc1ccc(N2CCN(c3c(C)c(C)c4c(c3C)C(O)(c3ccc(F)nc3)C(C)(C)O4)CC2)cc1 (stereo not given)" measured_property="melting point" readout_value="129 to 131 °C"
compound="CSCC[C@H](N)C(=O)NC(=O)C(CS)Cc1ccccc1 (stereo not given in full)" measured_property="melting point" readout_value="153 to 156 °C"
compound=O=C(CCCCCl)c1cc2c3c(c1)CCN3C(=O)CC2 measured_property="melting point" readout_value="110 to 111 °C"
compound=COc1cc(OC)cc(N2CCN(C(=S)Nc3cc4c(nc3OC)CCCC4)CC2)c1 measured_property="melting point" readout_value="160 to 161 °C"
compound=O=C(O)CCc1ccccc1OCCCCCOc1ccc2c(c1CCCc1ccccc1)OCCC2=O measured_property="melting point" readout_value="98 to 99 °C"

* * *

// values below are reported melting point
Measured Property: melting point

compound=COc1cc(Nc2ccnc(Nc3cc(OC)c(OC)c(OC)c3)n2)cc(OC)c1 readout_value="180 °C"
compound="CCOC(=O)N1CCC23CCCCC12c1ccccc1CC3 (centres undefined)" readout_value="67 to 69 °C"
compound=CC(=O)Oc1ccc(C(C)(c2ccc(OC(C)=O)cc2)c2ccc(OC(C)=O)cc2)cc1 readout_value="169 °C"
compound=CCCCOc1ccc(S(=O)(=O)C2(C(=O)O)CCN(Cc3cccc(Oc4ccccc4)c3)CC2)cc1 readout_value="92.5 °C"
compound=O=C(CCCN1CCCC1=O)Nc1ncccc1C(=O)c1cccs1 readout_value="143 to 145 °C"
compound=CCCCSc1cc(C(=O)O)cc(S(N)(=O)=O)c1Oc1ccccc1 readout_value="222 to 224 °C"
compound=O=C(Cl)OCC1c2c(c3ccccc3c3ccccc23)-c2c1c1ccccc1c1ccccc21 readout_value="188 to 189 °C"
compound="CC(=O)OC1COC(Br)C(OC(C)=O)C1OC(C)=O (centres undefined)" readout_value="92 °C"
compound=CCCCc1ccc(-c2ccc(CCc3ccc(C(F)(F)F)cc3)cc2)cc1 readout_value="85 °C"
compound=CN(C)Cc1ccc2n1Cc1ccccc1N(C(=O)c1ccc(-c3ccccc3)cc1)C2 readout_value="85 to 87 °C"
compound="COc1c(C)c(C)cc(C)c1C(O)(c1ccc(F)cc1)C(C)C (centres undefined)" readout_value="102 to 103 °C"
compound=CCn1c2c(c3ccccc31)Cc1c(C(=O)OC)c(C(=O)OC)c(C)n1C2 readout_value="202 to 203 °C"
compound=Cn1nc2c(N)nc3ccccc3c2c1CC(C)(C)NC(=O)c1ccccc1 readout_value="194 to 196 °C"
compound="FCC1(CF)OC1(CBr)c1cc(C(F)(F)F)ccc1Cl (centres undefined)" readout_value="54 to 55 °C"
